Tested on: DU-145 prostate
Experiment: NCI tumour cell line growth inhibition, 48 h
Property Name: TGI (µM)
Give bare numbers, in µM.

# Smiles Repr, Unit Name, TGI
records = [
    ("CCCCn1c2c(n(CCCC)c1=[Se])-c1c(n(CCCC)c(=[Se])n1CCCC)S[Se][Se]S2", "µM", 63.4),
    ("NC(=S)N=Nc1c(O)[nH]c2ccccc12", "µM", 284),
    ("COc1cc[nH]c1/C=C1\\C(=O)Nc2ccc([N+](=O)[O-])c(N3CC[C@@H](O)C3)c21", "µM", 2.83),
]

Lab note: next compound to report on.
# input Dear colleague, please send me the reported TGI for `Cc1ccc(C)c(C(=N)c2ccccc2Cc2ccccc2)c1` when you can.
# output 48.1

* * *

System: RPMI-8226 leukemia
Assay: NCI tumour cell line growth inhibition, 48 h; in the data active means GI50 below about 0.43 µM; inactive means the rest
Pick one: active, inactive

Worked cases, answers included:
# Molecule, Tgt, Category
rows = [
    ("COc1cc(OC)c2c(c1Cl)O[C@]1(C2=O)C(OCc2ccccc2)=CC(=O)C[C@H]1C", "RPMI-8226 leukemia", "inactive"),
    ("NC(N)=NC(N)=NCc1ccco1", "RPMI-8226 leukemia", "inactive"),
    ("CN1CCN(Cc2ccc(NC(=O)c3[nH]ncc3Nc3cc(OC4CCCC4)ncn3)cc2)CC1", "RPMI-8226 leukemia", "inactive"),
    ("Nc1cc(N)c2nc(-c3ccccc3)c(Oc3ccc(Cl)c(Cl)c3)nc2c1", "RPMI-8226 leukemia", "inactive"),
    ("NS(=O)(=O)c1ccc(N=Nc2c(=O)[nH]c3ccc4[nH]cccc4c23)cc1", "RPMI-8226 leukemia", "inactive"),
    ("COc1ccc2c(c1)O/C(=C\\c1ccc([N+](=O)[O-])s1)C2=O", "RPMI-8226 leukemia", "inactive"),
    ("O=C1CC2OCC=C3CN4CCC56c7ccccc7N1C5C2C3CC46 (stereo not drawn) (tested in a mixture with another compound)", "RPMI-8226 leukemia", "inactive"),
    ("O=C(Nc1ccc(N2CCNCC2)cn1)c1[nH]ncc1Nc1ncnc2sc3c(c12)CCC3", "RPMI-8226 leukemia", "inactive"),
]

# input # lookup: test call for COC(=O)C1=C(O)C(C(=O)OC)[C@@]2(O)[C@@H](C(=O)OC)C(c3ccccc3Cl)C[C@@H]1[C@@H]2C(=O)OC (stereo partly drawn)
# output inactive

# input // return assay outcome for `COc1ccc(-c2cc3c(N)ncnc3o2)cc1`
# output inactive

# input For `NC(N)=N/N=C/c1ccc(Br)cc1` , which call appears in the assay record?
# output inactive

# input What call does the record list for `CC(=O)N1c2ccc(-c3ccc(C(=O)O)cc3)cc2[C@H](Nc2ccc(Cl)cc2)C[C@@H]1C` ?
# output active

# input // outcome(item) with item = `CCC(=O)Oc1ccc(/C=N/NC(N)=S)nc1`
# output inactive

# input Can you look up the reported call for `O=S1(=O)C=C(c2ccccc2)C(c2ccccc2)=C1` for me?
# output inactive

# input // outcome(item) with item = `O=C1/C(=C/c2cccc(F)c2)CN(C(=O)C(Cl)Cl)C/C1=C\c1cccc(F)c1`
# output active

# input Hi, sorry to bother you, what did the test record for `Nc1nc(N)c(-c2ccc(Cl)cc2)c(/C=C/c2ccc([N+](=O)[O-])cc2)n1` ?
# output inactive

# input // param item: `CN1CCN(Cc2ccc(NC(=O)c3cncc(C#Cc4ncc5ccccn45)c3)cc2C(F)(F)F)CC1` ; yields the recorded call
# output inactive

# input Test call for this molecule, please: `COc1ccc2c(c1)NC(=O)CN2c1nc(C)nc2ccccc12`
# output active

* * *

System: U251 CNS
Test: NCI tumour cell line growth inhibition, 48 h
So I've got a bunch of molecules here, and I need their TGI values.

See these solved cases before continuing.
# Molecule, TGI
records = [
    ("COC(=O)CCc1c(/C=C2\\N=C(c3ccc[nH]3)C=C2OC)[nH]c(C)c1C(=O)OCc1ccccc1", "2.28 µM"),
    ("CC(C)(C)c1cc2c(O)c(c1)COCc1cc(C(C)(C)C)cc(c1O)COCc1cc(C(C)(C)C)cc(c1O)COC2", "> 100 µM"),
    ("Cc1ccc(C(=O)C(C)N)cc1C (configuration not stated)", "> 100 µM"),
    ("CCOC(=O)C1C(=O)c2cccc(OC)c2C2COC(=O)N12 (configuration not stated)", "> 100 µM"),
    ("O=c1c2cc([N+](=O)[O-])cnc2sn1-c1ccc(Br)cc1", "> 100 µM"),
]

Answer for every listed entry: what is its TGI? The entries follow.
1. COc1cc2c(cc1OC)C(=O)N1CCCC1C(=O)S2 (configuration not stated)
2. CC(C)=C=CC(C)(C)NS(=O)(=O)NC(C)(C)C=C=C(C)C
3. NC(C(=O)O)c1ccc(C(=O)O)cc1 (configuration not stated)
4. NC(=O)N/N=C/c1ccccc1O
5. O=c1[nH]c(Br)nc2c(N3CCCCC3)c[nH]c12
6. C[C@H](c1ccc(Cl)cc1[N+](=O)[O-])N1C(=O)c2cc(I)ccc2NC(=O)[C@H]1c1ccc(Cl)cc1
7. CC1(C)N=C(N)N=C(N)N1CCCCc1ccccc1

# output
["> 100 µM", "> 100 µM", "> 100 µM", "> 100 µM", "> 100 µM", "> 100 µM", "> 100 µM"]

# map each molecule to its TGI
1. CCCCCCC(=O)CC(=O)C(=O)Nc1ccccc1C
2. CN1CCN(Cc2ccc(NC(=O)c3[nH]ncc3Nc3cc(OC4CCCC4)ncn3)cc2)CC1
3. Cc1ccc(C(=O)N/N=C(\N=Nc2ccccc2)c2ccc(N(CCC#N)CCC#N)cc2C)cc1
4. CCCCCCCCC(=O)NCCN(CCN)C(=O)CCCCCCCC

# output
1. > 100 µM
2. 12.7 µM
3. > 100 µM
4. 9.26 µM

* * *

Test system: HS 578T breast
Test: NCI tumour cell line growth inhibition, 48 h
Numbered stars: 1 amine (or outer) side, 2 acyl side, 3 side chain; on linkers, the order of the positions; unused ones are H or OH. Bridge positions count the residues as written; N and C are the ends. Square brackets hold non-standard residues; d marks the D form. Peptide text beside a SMILES is read from it. I, II: the chains in the order shown. Actinocin(1to9) = Cc1c2oc3c(C)ccc(C(=O)[*:2])c3nc-2c(C(=O)[*:1])c(N)c1=O; NMeV = CN[CH](C(=O)O)C(C)C; Sar = CNCC(=O)O
Property Name: TGI (µM)
Give bare numbers, in µM.

Sample answers from the record:
# Molecule, Tgt, TGI / µM
records = [
    ("NC(=S)N=Nc1c(O)[nH]c2ccccc12", "HS 578T breast", 691),
    ("CCCCn1c2c(n(CCCC)c1=[Se])-c1c(n(CCCC)c(=[Se])n1CCCC)S[Se][Se]S2", "HS 578T breast", 80.5),
]

Read the next record carefully.
# input Identify measured TGI corresponding to CCC(C)C1NC(=O)C(NC(=O)c2c3nc4c(C(=O)NC5C(=O)NC(C(C)C)C(=O)N6CCCC6C(=O)N(C)CC(=O)N(C)C(C(C)C)C(=O)OC5C)ccc(C)c4oc-3c(C)c(=O)c2N)C(C)OC(=O)C(C(C)C)N(C)C(=O)CN(C)C(=O)C2CCCN2C1=O (stereo unspecified) (I: TIP[Sar][NMeV] / II: TVP[Sar][NMeV]; ester I:1-I:C, II:1-II:C; linker I:N-II:N via Actinocin(1to9); configuration not given here)
# output 0.363

* * *

Tested on: A498 renal
Assay: NCI tumour cell line growth inhibition, 48 h
So I've got a bunch of molecules here, and I need their TGI values.

Some molecules with recorded TGI:
# Molecule, TGI
records = [
    ("Cc1cc(C)nc(NS(=O)(=O)c2ccc(NC(=O)c3ccc4nc5ccccc5c(Nc5ccc(S(=O)(=O)Nc6nc(C)cc(C)n6)cc5)c4c3)cc2)n1", "> 100 µM"),
    ("Cc1c(C=C(C#N)C#N)c(=O)n(C)c(=O)n1C", "> 100 µM"),
    ("ClCCCN1CCCCC1CCl (stereo unspecified)", "> 100 µM"),
    ("N#CC12CC3(CCC1CCC1(C2)OCCO1)OCCO3 (stereo unspecified)", "> 100 µM"),
    ("COC(=O)c1ccccc1Nc1ccccc1C(=O)OC", "> 100 µM"),
    ("O=S1(=O)C=C(c2ccccc2)C(c2ccccc2)=C1", "3.25 µM"),
    ("CCCNC(=O)Nc1ccc2c(c1)Cc1cc(N(CCCl)CCCl)ccc1-2", "33.4 µM"),
    ("CC(=O)Nc1nc(C)c(-c2cc3c(c(S(C)(=O)=O)c2)C(=O)N([C@@H](C)C2CC2)C3)s1", "53.5 µM"),
]

List TGI for every entry below, keeping the order given.
1. CCCNC(=O)c1cc(NC(=O)c2cc(NC(=O)CCS(=O)(=O)OC)cn2C)cn1C
2. NC(N)=NC(N)=NCc1ccco1
3. O=c1[nH]c(=S)c2[nH]c(=O)n(-c3ccccc3)c2[nH]1

# output
> 100 µM
> 1250 µM
> 100 µM
